Assay: Volume of distribution at steady state in rat at 2 mg/kg, iv
Type: ADME, organism-based
Design: dose 2 mg/kg, route intravenous
Conditions: in vivo, read-out: Vdss
endpoint-label: Vd (L/kg)
The reply should contain only the number, in L/kg.

For "CNc1nc2[nH]c(-c3cccc(CNC(=O)CCOC)c3)cc2c2c1ncn2C" , what is its reported Vd?
0.2

----------
pIC50 overview
Assay: Inhibition of IKK1-catalyzed phosphorylation of GST-tagged IkappaBalpha fusion protein by fluorescence polarization assay
Here pIC50 is given on a logarithmic scale as minus log10 of the concentration in mol/L.

{"columns": ["structure-string", "pIC50"],
 "data": [
  ["CNc1nc2[nH]c(-c3cccc(CNC(=O)CCOC)c3)cc2c2c1ncn2C", 7.92]
]}

Consider now this further compound.
Which pIC50 is reported for this compound? "CNc1nc2[nH]c(-c3cccc(OC)c3)cc2c2c1ncn2C"
8.10
